Recorded measurements of melting point, one per entry

Please review the entries below; each comes with its answer.
1) CC(=O)n1nc(Nc2ccc(S(N)(=O)=O)cc2)nc1N | 334 to 336 °C
2) Nc1nc(Nc2ccc(S(N)(=O)=O)cc2)nn1C(=O)c1ccccc1Br | 246 to 248 °C
3) Nc1nc(Nc2ccc(S(N)(=O)=O)cc2)nn1C(=O)c1ccco1 | > 300 °C
4) Nc1nc(Nc2ccc(S(N)(=O)=O)cc2)nn1C(=O)c1cccc([N+](=O)[O-])c1 | 260 to 262 °C
5) Nc1nc(Nc2ccc(S(N)(=O)=O)cc2)nn1C(=O)c1ccc(Cl)cc1 | > 260 °C

I am curious: what melting point value has been reported for `Nc1nc(Nc2ccc(S(N)(=O)=O)cc2)nn1C(=O)c1ccc(O)cc1` ?
> 300 °C

I am curious: what melting point value has been reported for `Nc1nc(Nc2ccc(S(N)(=O)=O)cc2)nn1C(=O)c1cccc(C(F)(F)F)c1` ?
251 to 253 °C

I am curious: what melting point value has been reported for `COc1ccccc1C(=O)n1nc(Nc2ccc(S(N)(=O)=O)cc2)nc1N` ?
217 to 221.5 °C

I am curious: what melting point value has been reported for `Cc1ccc(C(=O)n2nc(Nc3ccccc3)nc2N)cc1` ?
222.5 to 224 °C

I am curious: what melting point value has been reported for `COc1cccc(C(=O)n2nc(Nc3ccccc3)nc2N)c1` ?
174 to 184 °C

I am curious: what melting point value has been reported for `COc1ccc(C(=O)n2nc(Nc3ccc(S(N)(=O)=O)cc3)nc2N)cc1` ?
244.5 to 247.5 °C

I am curious: what melting point value has been reported for `Nc1nc(Nc2ccccc2)nn1C(=O)c1ccco1` ?
201 to 202 °C

###

Recorded measurements of melting point, one per entry

I am curious: what melting point value has been reported for Nc1nc(Nc2ccc(S(N)(=O)=O)cc2)nn1C(=O)c1cccc(Br)c1 [Compound #7] ?
242 to 244 °C

I am curious: what melting point value has been reported for Nc1nc(Nc2ccc(S(N)(=O)=O)cc2)nn1C(=O)c1ccccc1Cl [Compound #2] ?
237 to 242.5 °C

I am curious: what melting point value has been reported for COc1ccccc1C(=O)n1nc(Nc2ccccc2)nc1N [Compound #29] ?
89.5 to 94 °C

I am curious: what melting point value has been reported for Nc1nc(Nc2ccc(S(N)(=O)=O)cc2)nn1C(=O)c1ccc([N+](=O)[O-])cc1 [Compound #9] ?
336 to 338 °C
